Measured Plant response rating, Crabgrass, Large accompanies every entry in the list below.
test system: large (Lg) crabgrass; test: Test C postemergence; format: in vivo, Digitaria sanguinalis; conditions: Postemergence, 62 g ai/ha; scale 0 to 100 (0 no effect, 100 complete control)
Just the number, please.

N#Cc1cccc(Oc2ncc(F)cn2)c1-n1cc(Cl)cn1 = 10
CCOc1cn(-c2c(Br)cccc2Oc2ncc(Cl)cn2)nn1 = 5

Record N#Cc1cccc(Oc2ncc(Br)cn2)c1-n1cc(I)cn1 , field Plant response rating, Crabgrass, Large: 10

Record FC(F)(F)c1cnn(-c2ccccc2Oc2ncc(Cl)cn2)c1 , field Plant response rating, Crabgrass, Large: 20

Record Clc1cnc(Oc2cccc(Br)c2-n2cc(Br)cn2)nc1 , field Plant response rating, Crabgrass, Large: 5
